This section presents compounds with their documented Population Mitotic Cells (%) values.
# Test system: U2OS
# protocol: Multiplex assay against U2OS
# Format: toxicity, cell-based
# testParameters: human, 48 h, 1 µM, compound concentration 1 uM, replicate 1
Provide the reading as a plain figure in %.

input: Population Mitotic Cells (%) lookup needed for COc1ccc(NS(=O)(=O)c2sc3ccc(Cl)cc3c2C)cc1N1CCNCC1.Cl , thanks.
output: 64

input: Population Mitotic Cells (%) lookup needed for Nc1ccc(C(=O)Nc2cccc(-c3nc(N4CCOCC4)c4oc5ncccc5c4n3)c2)cn1 , thanks.
output: 42

input: Population Mitotic Cells (%) lookup needed for Cc1nc(Cc2cccc(C(F)(F)F)c2)sc1-c1ccc(C(N)=O)nc1 [TP-024n] , thanks.
output: 68

input: Population Mitotic Cells (%) lookup needed for CNc1oc(-c2cccc3ccccc23)nc1C#N , thanks.
output: 43

input: Population Mitotic Cells (%) lookup needed for CCn1c(-c2nonc2N)nc2cnc(Oc3cccc(NC(=O)c4ccc(OCCN5CCOCC5)cc4)c3)cc21 [GSK-269962A] , thanks.
output: 52

input: Population Mitotic Cells (%) lookup needed for O=C(O)c1ccc2cc(-c3ccc(O)c(C45CC6CC(CC(C6)C4)C5)c3)ccc2c1 [O-DEMETHYLATED ADAPALENE] , thanks.
output: 50

input: Population Mitotic Cells (%) lookup needed for COc1cc2c(NC3CCN(C(C)C)CC3)nc(N3CCC(F)(F)CC3)nc2cc1OCCCN1CCCC1 , thanks.
output: 72

input: Population Mitotic Cells (%) lookup needed for Cl.Cl.Nc1ncnc2c1c(-c1cccc(OCc3ccccc3)c1)cn2[C@H]1C[C@@H](CN2CCC2)C1 , thanks.
output: 34

input: Population Mitotic Cells (%) lookup needed for CCc1cc2c(cc1CC)CC(NC[C@H](O)c1ccc(O)c3[nH]c(=O)ccc13)C2 [INDACATEROL] , thanks.
output: 54

input: Population Mitotic Cells (%) lookup needed for CC(=O)c1cc(-c2cc(C(=O)NC3CC3)ccc2C)c2ncccn12 , thanks.
output: 52

input: Population Mitotic Cells (%) lookup needed for Cc1cc2c(cc1N1C(=O)c3cccc4c(CCCO)ccc(c34)C1=O)n(C)c(=O)n2C , thanks.
output: 35

* * *

# System: U2OS
# protocol: Multiplex assay against U2OS
# Type: toxicity, cell-based
# testParameters: human, 12 h, 1 µM, compound concentration 1 uM, replicate 1
Threshold 5%: Population Hoechst High Intensity Objects (%) strictly smaller gives Y, otherwise N.

Please review the entries below; each comes with its answer.
compound: N#Cc1cnc(Nc2cc(NC[C@H]3CNCCO3)c(C(F)(F)F)cn2)cn1
labelClass: N
--
compound: COc1cc2c(Nc3ccc(NC(=O)c4ccccc4)cc3)ncnc2cc1OCCCN1CCOCC1
labelClass: Y
--
compound: Cc1cn(-c2cc(NC(=O)c3ccc4c(c3)CN(c3cncnc3)C[C@@H]4C)cc(C(F)(F)F)c2)cn1
labelClass: N
--
compound: CNc1oc(-c2cccc3ccccc23)nc1C#N
labelClass: N
--
compound: CC(C)(C)c1cnc(CSc2cnc(NC(=O)C3CCNCC3)s2)o1
labelClass: Y
--
compound: CCCn1c(=O)c2[nH]c(C34CC5CC(CC3C5)C4)nc2n(CCC)c1=O
labelClass: N

input: Confirm or reject: Population Hoechst High Intensity Objects (%) of c1ccc2oc(-c3csc(C4CCN(Cc5nc6ncccc6[nH]5)CC4)n3)cc2c1 lies strictly below 5%
output: Y

input: Confirm or reject: Population Hoechst High Intensity Objects (%) of CS(=O)(=O)N1CCN(Cc2cc3nc(-c4cccc5[nH]ncc45)nc(N4CCOCC4)c3s2)CC1 lies strictly below 5%
output: Y

input: Confirm or reject: Population Hoechst High Intensity Objects (%) of CN(C)C/C=C/C(=O)Nc1cc2c(Nc3ccc(F)c(Cl)c3)ncnc2cc1O[C@H]1CCOC1.O=C(O)/C=C\C(=O)O.O=C(O)/C=C\C(=O)O [AFATINIB DIMALEATE] lies strictly below 5%
output: Y

input: Confirm or reject: Population Hoechst High Intensity Objects (%) of Nc1nc2c(c(N3CCNCC3)n1)CCC1=C2[C@@H]2CCCC[C@@H]2O1 lies strictly below 5%
output: N

input: Confirm or reject: Population Hoechst High Intensity Objects (%) of COc1cc2c(NC3CCN(C(C)C)CC3)nc(N3CCC(F)(F)CC3)nc2cc1OCCCN1CCCC1 lies strictly below 5%
output: N
